# target_desc: UniProt P35498
# test_protocol: Sodium Influx Assay (Flux), NaV1.1
# Format: cell-based
# condition_parameters: Trex HEK293 cells, ANG2 dye; arithmetic mean
Counter-ions that a name gives are not always drawn.
Please provide measured IC50 for the entries that follow.
Please respond with the number in µM and leave the unit unwritten.

Query: GET IC50 | system: UniProt P35498 | item: CN(c1cc(F)c(S(=O)(=O)Nc2cccc(F)n2)cc1Cl)[C@H]1CCN(Cc2ccccc2)C1 [Example 40, bis(trifluoroacetic acid) salt]
Reply: 6.79

Query: GET IC50 | system: UniProt P35498 | item: Cc1cc(C)cc(CN2CCC(Oc3ccc(S(=O)(=O)Nc4ncns4)cc3Cl)C(C)(C)C2)c1 (stereo not shown) [Example 3, 2,2,2-trifluoroacetate]
Reply: 20.8

Query: GET IC50 | system: UniProt P35498 | item: CCN(c1cc(F)c(S(=O)(=O)Nc2cscn2)cc1C)[C@H]1CCN(Cc2ccccc2)C1 [Example 312, 2,2,2-trifluoroacetate]
Reply: 10.2

Query: GET IC50 | system: UniProt P35498 | item: `O=S(=O)(Nc1cscn1)c1ccc(OC2CCN(C3(c4ccccc4)CC3)CC2)c(Cl)c1`
Reply: 7.06

Query: GET IC50 | system: UniProt P35498 | item: `CC1(Oc2ccc(S(=O)(=O)Nc3nccs3)cc2Cl)CCN(Cc2cccc(Cl)c2)CC1`
Reply: 5.93

Query: GET IC50 | system: UniProt P35498 | item: C[C@H](c1ccccc1)N1CCC(N(C)c2cc(F)c(S(=O)(=O)Nc3cscn3)cc2Cl)CC1 [Example 280, formate]
Reply: 17.4

Query: GET IC50 | system: UniProt P35498 | item: `Cc1cc(S(=O)(=O)Nc2cscn2)c(F)cc1N(C)[C@H]1CCN(Cc2ccn(CC(F)(F)F)n2)C1`
Reply: 12.9

----------
# target_desc: UniProt Q9UQD0
# test_protocol: Sodium Influx Assay (Flux), NaV1.6
# condition_parameters: read-out: Flux NaV1.6 IC50; Trex HEK293 cells, ANG2 dye; arithmetic mean
pIC50: −log10 of the molar value. Counter-ions that a name gives are not always drawn.
Each entry gets n if its pIC50 stays under 6, and y if its pIC50 is 6 or above.

Query: Quick check, pIC50 >= 6? `CN(c1ccc(S(=O)(=O)Nc2cscn2)cc1Cl)[C@H]1CCN(C(C)(C)c2ccccc2)C1`
Reply: y

Query: Quick check, pIC50 >= 6? `Cc1c(F)cccc1CN1CC[C@H](N(C)c2cc(F)c(S(=O)(=O)Nc3cscn3)cc2Cl)C1`
Reply: n

Query: Quick check, pIC50 >= 6? C[C@H](c1ccccc1)N1CC[C@H](N(C)c2cc(F)c(S(=O)(=O)Nc3cccc(F)n3)cc2Cl)C1 [Example 45, 2,2,2-trifluoroacetate]
Reply: n

Query: Quick check, pIC50 >= 6? CCc1cc(S(=O)(=O)Nc2cscn2)c(F)cc1N(C)[C@H]1CCN(Cc2ccccc2)C1 [Example 290, 2,2,2-trifluoroacetate]
Reply: n

Query: Quick check, pIC50 >= 6? Cc1cc(S(=O)(=O)Nc2cscn2)c(F)cc1N[C@@H]1CCN(Cc2ccccc2)C1 [Example 271, formate]
Reply: n

Query: Quick check, pIC50 >= 6? `Cc1cc(S(=O)(=O)Nc2cscn2)c(F)cc1N(C)[C@H]1CCN(Cc2cocn2)C1`
Reply: n

Query: Quick check, pIC50 >= 6? `C[C@@H](c1ccccc1)N1CCC(Oc2ccc(S(=O)(=O)Nc3ccncn3)cc2Cl)CC1`
Reply: n

Query: Quick check, pIC50 >= 6? `CN(c1cc(F)c(S(=O)(=O)Nc2cscn2)cc1Cl)[C@H]1CCN(Cc2cccc(F)c2)C1`
Reply: n

Query: Quick check, pIC50 >= 6? `C[C@@H](c1ccccc1)N1CC[C@H](N(C)c2ccc(S(=O)(=O)Nc3nccs3)cc2Cl)C1`
Reply: y

Query: Quick check, pIC50 >= 6? CC1(Nc2ccc(S(=O)(=O)Nc3cscn3)cc2Cl)CN(Cc2ccccc2)C1 [Example 255, 2,2,2-trifluoroacetate]
Reply: n

Query: Quick check, pIC50 >= 6? `O=S(=O)(Nc1nccs1)c1ccc(OC2CN(Cc3ccccc3)C2)c(Cl)c1`
Reply: n

Cited source for all entries: patent US10246453B2
